assayRemarks: In vitro hemolytic potential with dog erythrocytes, phosphate buffer vehicle (Example 1)
Type: cell-based
condition: dog, whole blood, pH 8, 20 mg/mL Active Ingredient in 0.1 M pH 8 phosphate buffer; Blood/Solution ratio 1:1; n=5 (mean); percentage of that induced by saponin
measuredProperty: hemolysis at 0.5 h (%)
Kindly provide the numeric value in % only, without the unit symbol.

Task: Would you kindly share the measured hemolysis at 0.5 h for C[C@@H](Oc1ccc(Oc2ccc3ccc(Br)cc3n2)cc1)C(=O)O ?
Output: 28

###

assayRemarks: In vitro hemolytic potential with dog erythrocytes, phosphate buffer vehicle (Example 1)
Type: cell-based
condition: dog, whole blood, pH 8, 10 mg/mL Active Ingredient in 0.1 M pH 8 phosphate buffer; Blood/Solution ratio 9:1; n=5 (mean); percentage of that induced by saponin
measuredProperty: hemolysis at 0.5 h (%)
Kindly provide the numeric value in % only, without the unit symbol.

Task: Would you kindly share the measured hemolysis at 0.5 h for C[C@@H](Oc1ccc(Oc2ccc3ccc(Br)cc3n2)cc1)C(=O)O ?
Output: 4.5
